Origin of measurements: patent US7781565B2

- System: NCI-60 cell lines
- Type: cell-based, human
endpoint: Cell Line (NCI-60 cell line the peptide is associated with)

# substance, measuredValue
records = [
    ("AGGWWVG", "HCT-15 Colon"),
    ("WIWRAVS", "SF-268 CNS"),
    ("TRGDAVS", "SF-295 CNS"),
    ("SGGGGLG", "SF-268 CNS"),
    ("GGRSKKV", "SF-268 CNS"),
    ("WGLVRHA", "SF-268 CNS"),
    ("HAAVMSL", "HCT-15 Colon"),
    ("SRASDVT", "SW620-Colon"),
]

Record Cell Line (NCI-60 cell line the peptide is associated with) for all entries; do not skip any.
1. GPFRAVP
2. TWSTGGR
3. LGAGEGD
4. GVSALSL

Out:
1: COLO-205-Colon; 2: LOX-IMVI Melanoma; 3: SNB-75 CNS; 4: HT-29 Colon

* * *

- Test system: NCI-60 cell lines
- Type: cell-based, human
endpoint: Cell Line (NCI-60 cell line the peptide is associated with)

Completed entries (count: 6):
# substance, measurementTarget, measuredValue
measured = [
    ("AGRSCNL", "NCI-60 cell lines", "HCT-116 Colon"),
    ("LSGSVLQ", "NCI-60 cell lines", "HCT-116 Colon"),
    ("TRLGGLT", "NCI-60 cell lines", "SF-295 CNS"),
    ("LDRSGGL", "NCI-60 cell lines", "HCT-116 Colon"),
    ("FSGDAVS", "NCI-60 cell lines", "HT-29 Colon"),
    ("GSSRVRW", "NCI-60 cell lines", "HCT-15 Colon"),
]

Record Cell Line (NCI-60 cell line the peptide is associated with) for all entries; do not skip any.
1. ISPRSSG
2. GGFTGGL
3. GRGVTIW

Out:
["HCT-15 Colon", "SF-295 CNS", "HT-29 Colon"]

* * *

- Test system: NCI-60 cell lines
- Format: cell-based, human
endpoint: Cell Line with which the peptide (and its tripeptide motif) is associated

# substance, measuredValue
measured = [
    ("TGRVVRR", "CCRF-CEM Leukemia"),
    ("RSSLGLP", "H226-Lung"),
    ("EVLVSGD", "Molt-4-Leukemia"),
    ("MFARGWE", "CCRF-CEM Leukemia"),
]

Record Cell Line with which the peptide (and its tripeptide motif) is associated for all entries; do not skip any.
1. QGRVNVK
2. SQSGGRH

Out:
1. H226-Lung
2. Molt-4-Leukemia

* * *

- Tested on: NCI-60 cell lines
- Format: cell-based, human
endpoint: Cell Line (NCI-60 cell line the peptide is associated with)

Completed entries (count: 5):
# substance, measurementTarget, measuredValue
records = [
    ("AGLQHAV", "NCI-60 cell lines", "HCT-15 Colon"),
    ("ALVSVAG", "NCI-60 cell lines", "SF-295 CNS"),
    ("LGGLGIH", "NCI-60 cell lines", "SF-295 CNS"),
    ("GSSYSGP", "NCI-60 cell lines", "HCT-116 Colon"),
    ("PGSSFVG", "NCI-60 cell lines", "HCT-15 Colon"),
]

Record Cell Line (NCI-60 cell line the peptide is associated with) for all entries; do not skip any.
1. VMPGSVV
2. GALRVPW
3. LGGSRDL
4. VLRSGEL

Out:
["SF-295 CNS", "HCT-15 Colon", "HCT-116 Colon", "SF-295 CNS"]

Record Cell Line (NCI-60 cell line the peptide is associated with) for all entries; do not skip any.
1. SVDRGVI
2. DGEGAGL
3. FSGLVVA
4. YAASLMG
5. GRGSGGF
6. NEGRLGI
7. ASAVSGR
8. WQVALRS

Out:
["LOX-IMVI Melanoma", "SNB-75 CNS", "HT-29 Colon", "SNB-75 CNS", "LOX-IMVI Melanoma", "SNB-75 CNS", "HT-29 Colon", "HT-29 Colon"]

* * *

- Test system: NCI-60 cell lines
- Assay type: cell-based, human
endpoint: Cell Line (NCI-60 cell line the peptide is associated with)

Completed entries (count: 10):
# substance, measuredValue
data = [
    ("TWIGRVS", "LOX-IMVI Melanoma"),
    ("MVLRGSY", "SNB-75 CNS"),
    ("LIGGRNA", "HCT-116 Colon"),
    ("YDGLVSG", "COLO-205-Colon"),
    ("GGLSNVV", "SW620-Colon"),
    ("VRAVCLM", "SNB-75 CNS"),
    ("GGVLGSD", "LOX-IMVI Melanoma"),
    ("RYGVGGL", "HT-29 Colon"),
    ("PLAVGLV", "HCT-116 Colon"),
    ("DGGRRTD", "HCT-15 Colon"),
]

Record Cell Line (NCI-60 cell line the peptide is associated with) for all entries; do not skip any.
1. YWQHRVS
2. EGGRTHW
3. PGAVLTV

Out:
HCT-116 Colon
HT-29 Colon
COLO-205-Colon

Record Cell Line (NCI-60 cell line the peptide is associated with) for all entries; do not skip any.
1. FGSSNRS
2. ARRGVLG

Out:
["SF-268 CNS", "COLO-205-Colon"]

Record Cell Line (NCI-60 cell line the peptide is associated with) for all entries; do not skip any.
1. IAGLAVV
2. SSTRGVY
3. AAKTLLS
4. LVGRVKL

Out:
SNB-75 CNS
HT-29 Colon
SW620-Colon
HT-29 Colon

Record Cell Line (NCI-60 cell line the peptide is associated with) for all entries; do not skip any.
1. AGGWRGR
2. LRGSYVL
3. PRGRLFD
4. QLVSGSL
5. GSWARGY
6. SGSSVRY
7. GCGGVRD

Out:
1: SF-268 CNS; 2: SW620-Colon; 3: HT-29 Colon; 4: HCT-116 Colon; 5: HCT-15 Colon; 6: SNB-75 CNS; 7: HT-29 Colon

* * *

- Test system: NCI-60 cell lines
- Format: cell-based, human
endpoint: Cell Line with which the peptide (and its tripeptide motif) is associated

Completed entries (count: 5):
# substance, measuredValue
measured = [
    ("ARGVLLM", "CCRF-CEM Leukemia"),
    ("HRGGSQS", "Molt-4-Leukemia"),
    ("FRASLQY", "Hop-62-Lung"),
    ("QAGSFLR", "EKVX-Lung"),
    ("AVGRGSG", "Hop-92-Lung"),
]

Record Cell Line with which the peptide (and its tripeptide motif) is associated for all entries; do not skip any.
1. GGGSWLI
2. PATRGSV

Out:
1. EKVX-Lung
2. Hop-92-Lung

* * *

- Tested on: NCI-60 cell lines
- Format: cell-based, human
endpoint: Cell Line with which the peptide (and its tripeptide motif) is associated

# substance, measurementTarget, measuredValue
measured = [
    ("VMLLRPE", "NCI-60 cell lines", "HL-60-Leukemia"),
    ("LVSSSEP", "NCI-60 cell lines", "HL-60-Leukemia"),
]

* * *

- Test system: NCI-60 cell lines
- Type: cell-based, human
endpoint: Cell Line with which the peptide (and its tripeptide motif) is associated

Completed entries (count: 5):
# substance, measuredValue
rows = [
    ("FDRGVEA", "K-562-Leukemia"),
    ("FAGGSTD", "HL-60-Leukemia"),
    ("TEGSVTV", "HL-60-Leukemia"),
    ("SVEGRGV", "A549-Lung"),
    ("LPLLRGI", "HL-60-Leukemia"),
]

Record Cell Line with which the peptide (and its tripeptide motif) is associated for all entries; do not skip any.
1. FWRGSVP
2. AATLLSF

Out:
["A549-Lung", "K-562-Leukemia"]

* * *

- System: NCI-60 cell lines
- Type: cell-based, human
endpoint: Cell Line with which the peptide (and its tripeptide motif) is associated

# substance, measurementTarget, measuredValue
rows = [
    ("LAGGVPG", "NCI-60 cell lines", "CCRF-CEM Leukemia"),
    ("GSSRQFV", "NCI-60 cell lines", "A549-Lung"),
    ("PLRSFDS", "NCI-60 cell lines", "H23-Lung"),
    ("DGGRRSS", "NCI-60 cell lines", "EKVX-Lung"),
    ("PSVGVRA", "NCI-60 cell lines", "H322-Lung"),
    ("LIGPGGR", "NCI-60 cell lines", "H322-Lung"),
]

Record Cell Line with which the peptide (and its tripeptide motif) is associated for all entries; do not skip any.
1. ERASQTA
2. GLRTRQV
3. YGIGVRL
4. GRLWWHT

Out:
1. K-562-Leukemia
2. Hop-92-Lung
3. H23-Lung
4. Hop-92-Lung
